- measurement_target: RdRp of the influenza virus (replicon activity) (Influenza A virus, UniProt P03431)
- experiment_description: Influenza virus RdRp replicon reporter (Luc) assay in transduced 293T cells
- Assay type: cell-based, Influenza A/PR/8/34 (H1N1)
- measurement_context: HEK-293T, T-705 10 μM; antimetabolite 0.4 μM; read-out: Replicon inhibiting percentage
// values below are reported inhibition at 10 µM
metric: inhibition at 10 µM

>>> value("Sc1ncnc2nc[nH]c12")
"3.7%"
>>> value("Cn1cnc([N+](=O)[O-])c1Sc1ncnc2nc[nH]c12")
"1.3%"
>>> value("C#CCC(Cc1cnc2nc(N)nc(N)c2n1)c1ccc(C(=O)N[C@@H](CCC(=O)O)C(=O)O)cc1 (stereo partly shown) [Pralatrexate, pralatrexate]")
"33%"
>>> value("CN(Cc1cnc2nc(N)nc(N)c2n1)c1ccc(C(=O)N[C@@H](CCC(=O)O)C(=O)O)cc1 [Methotrexate, methotrexate]")
"36%"

###

- measurement_target: UniProt:P03431
- experiment_description: Influenza virus RdRp replicon reporter (Luc) assay in transduced 293T cells
- Format: cell-based, Influenza A/PR/8/34 (H1N1)
- measurement_context: 6-Mercaptopurine concentration 0.82 μM; read-out: T-705 50% inhibitory concentration
pIC50: −log10 of the molar value.
metric: pIC50

>>> value("NC(=O)c1nc(F)cnc1O [T-705, 6-Fluoro-3-hydroxy-2-pyrazinecarboxamide]")
3.79

###

- measurement_target: UniProt:P03431
- experiment_description: Influenza virus RdRp replicon reporter (Luc) assay in transduced 293T cells
- Format: cell-based, Influenza A/PR/8/34 (H1N1)
- measurement_context: HEK-293T, T-705 10 μM; antimetabolite 2.0 μM; read-out: Replicon inhibiting percentage
This section presents molecules with their documented inhibition at 10 µM values.
metric: inhibition at 10 µM (%)

>>> value("Sc1ncnc2nc[nH]c12")
17
>>> value("CN(Cc1cnc2nc(N)nc(N)c2n1)c1ccc(C(=O)N[C@@H](CCC(=O)O)C(=O)O)cc1 [Methotrexate, methotrexate]")
34
>>> value("C#CCC(Cc1cnc2nc(N)nc(N)c2n1)c1ccc(C(=O)N[C@@H](CCC(=O)O)C(=O)O)cc1 (some centres unmarked) [Pralatrexate, pralatrexate]")
33
>>> value("Nc1nc2nc[nH]c2c(=S)[nH]1")
14
>>> value("Cn1cnc([N+](=O)[O-])c1Sc1ncnc2nc[nH]c12")
5.9

###

- measurement_target: UniProt P03431
- experiment_description: Influenza virus RdRp replicon reporter (Luc) assay in transduced 293T cells
- Assay type: cell-based, Influenza A/PR/8/34 (H1N1)
- measurement_context: Pralatrexate concentration 1.25 μM; read-out: T-705 50% inhibitory concentration
metric: IC50

>>> value("NC(=O)c1nc(F)cnc1O [T-705, 6-Fluoro-3-hydroxy-2-pyrazinecarboxamide]")
"18 µM"

###

- measurement_target: RdRp of the influenza virus (replicon activity) (Influenza A virus, UniProt P03431)
- experiment_description: Influenza virus RdRp replicon reporter (Luc) assay in transduced 293T cells
- Assay type: cell-based, Influenza A/PR/8/34 (H1N1)
- measurement_context: Methotrexate concentration 0.63 μM; read-out: T-705 50% inhibitory concentration
metric: IC50 (µM)

>>> value("NC(=O)c1nc(F)cnc1O [T-705, 6-Fluoro-3-hydroxy-2-pyrazinecarboxamide]")
47

Values were extracted from patent US20220096468A1.
